The entries below come with measured protein stability index values attached.
B1: ELF3 (parent)
chain: RLVYKFGKNSSGWKEEEVLQSRN

variants of: B1; assay: protein stability index of a GFP-peptide fusion (GPS, HEK-293T) (PSI 1-6); higher = more stable; conditions: c terminus: native;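 also: lentivirally expressed fusions sorted by FACS into six bins by GFP to DsRed ratio, PSI derived from sequencing read proportions per bin multiplied by bin number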
QUANTITY KIND: protein stability index

In [3]: df
Out[3]:
   variant_notation  recorded_measurement
0              E17F                  1.75
1              S11P                  2.79
2              G12Q                  1.95
3               L2F                  2.79
4               Y4H                   3.8
5              S21T                   2.1
6              W13I                  3.91
7               Y4K                  3.36
